meta.source: PubChem BioAssay (NCI)

System: EKVX NSCLC
procedure_summary: NCI-60 one-dose screen, 48 h (100 = growth as untreated, 0 = no growth, -100 = all killed)
experimental_setup: 10 µM unless noted
The panel holds about 83,000 compounds, 20% with a hit somewhere; the sample as a whole holds those more often.
quantity_measured: growth (%)

> print(dat)
                         input.smiles  quantity.measured  reported
1  Cc1ccc(N=C=C(c2ccccc2)c2ccccc2)cc1             growth      90.6
2               O=C1OCc2cccc3cccc1c23             growth      88.2
3         C=CCOc1ccc(N=NC(C#N)C#N)cc1             growth      92.6
4            N#CSCc1ccc(CSC#N)c(Cl)c1             growth      90.9
